subject of test: hGARP-proTGFβ1 in the cell-based potency assay (human, UniProt P01137 30-390; Q14392 20-662)
Sequence (P01137 30-390 limits assumed, chain 1 of 2): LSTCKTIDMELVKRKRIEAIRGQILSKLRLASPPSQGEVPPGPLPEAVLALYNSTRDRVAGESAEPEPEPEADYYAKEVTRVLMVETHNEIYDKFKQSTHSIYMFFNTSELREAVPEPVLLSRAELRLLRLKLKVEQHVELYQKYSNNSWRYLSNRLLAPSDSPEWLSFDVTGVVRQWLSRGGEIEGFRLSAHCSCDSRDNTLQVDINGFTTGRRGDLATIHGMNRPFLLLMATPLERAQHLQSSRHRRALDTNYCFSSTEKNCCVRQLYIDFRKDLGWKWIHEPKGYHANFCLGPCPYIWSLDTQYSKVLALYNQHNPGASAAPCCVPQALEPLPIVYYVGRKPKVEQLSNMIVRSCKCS
Sequence (Q14392 20-662 limits assumed, chain 2 of 2): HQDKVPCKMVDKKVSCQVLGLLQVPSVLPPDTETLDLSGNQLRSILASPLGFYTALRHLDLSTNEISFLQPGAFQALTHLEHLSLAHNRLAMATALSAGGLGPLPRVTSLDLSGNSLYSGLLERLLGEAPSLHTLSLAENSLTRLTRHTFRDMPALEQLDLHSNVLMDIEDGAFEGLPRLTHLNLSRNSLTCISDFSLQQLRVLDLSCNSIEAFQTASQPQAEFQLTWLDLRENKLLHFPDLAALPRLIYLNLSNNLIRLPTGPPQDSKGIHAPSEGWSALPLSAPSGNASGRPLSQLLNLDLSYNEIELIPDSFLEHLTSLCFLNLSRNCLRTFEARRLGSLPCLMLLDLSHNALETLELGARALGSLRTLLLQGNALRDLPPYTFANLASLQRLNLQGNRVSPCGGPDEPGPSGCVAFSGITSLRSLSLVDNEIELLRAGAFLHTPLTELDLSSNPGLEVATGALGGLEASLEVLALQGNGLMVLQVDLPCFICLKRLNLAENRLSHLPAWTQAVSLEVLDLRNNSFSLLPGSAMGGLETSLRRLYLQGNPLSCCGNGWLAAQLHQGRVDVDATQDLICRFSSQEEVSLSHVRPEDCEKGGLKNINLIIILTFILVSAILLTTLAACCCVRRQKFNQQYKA
assay name: cell-based or functional assay
measure name: IC50, reporter cell assay of TGFβ1 activation (nM)
Give the quantity in nM, number only.

Below, 4 binders whose answers are already recorded.
binder	result units	reported value
Ab5 (antibody, V domains shown) VH: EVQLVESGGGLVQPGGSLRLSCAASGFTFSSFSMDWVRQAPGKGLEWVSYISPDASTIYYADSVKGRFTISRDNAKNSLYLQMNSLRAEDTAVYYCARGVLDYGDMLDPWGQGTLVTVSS VL: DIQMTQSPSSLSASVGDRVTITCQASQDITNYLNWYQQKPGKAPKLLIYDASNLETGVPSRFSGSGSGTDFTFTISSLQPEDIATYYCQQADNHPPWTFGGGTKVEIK	nM	0.1
Ab25 (antibody, V domains shown) VH: EVQLVESGGGLVQPGGSLRLSCAASGFTFGSFSMDWVRQAPGKGLEWVSYISPDASTIYYADSVKGRFTISRDNAKNSLYLQMNSLRAEDTAVYYCARGVLDYGDMLDPWGQGTLVTVSS VL: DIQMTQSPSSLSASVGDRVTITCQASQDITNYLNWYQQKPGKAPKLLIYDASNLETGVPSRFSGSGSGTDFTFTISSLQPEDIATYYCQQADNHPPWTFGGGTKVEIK	nM	0.4
Ab26 (antibody, V domains shown) VH: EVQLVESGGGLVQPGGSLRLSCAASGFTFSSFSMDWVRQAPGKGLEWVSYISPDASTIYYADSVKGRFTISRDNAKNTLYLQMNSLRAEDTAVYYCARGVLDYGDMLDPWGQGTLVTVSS VL: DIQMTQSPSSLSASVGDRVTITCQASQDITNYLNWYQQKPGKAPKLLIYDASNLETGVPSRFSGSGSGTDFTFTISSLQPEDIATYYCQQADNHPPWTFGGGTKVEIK	nM	0.3
Ab23 (antibody, V domains shown) VH: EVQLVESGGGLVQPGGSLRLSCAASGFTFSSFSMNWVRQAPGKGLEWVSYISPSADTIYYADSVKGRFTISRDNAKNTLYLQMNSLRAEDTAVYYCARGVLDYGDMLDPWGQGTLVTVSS VL: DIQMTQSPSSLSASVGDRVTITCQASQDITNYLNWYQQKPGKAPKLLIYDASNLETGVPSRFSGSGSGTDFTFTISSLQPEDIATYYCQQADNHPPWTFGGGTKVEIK	nM	0.3

Proceeding to the next binder to report its IC50, reporter cell assay of TGFβ1 activation.
Asked: If you can, please state the reported IC50, reporter cell assay of TGFβ1 activation value of Ab29 (antibody, V domains shown) VH: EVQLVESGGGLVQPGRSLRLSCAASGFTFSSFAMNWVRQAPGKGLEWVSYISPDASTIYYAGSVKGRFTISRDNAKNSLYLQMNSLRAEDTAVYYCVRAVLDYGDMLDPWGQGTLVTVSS VL: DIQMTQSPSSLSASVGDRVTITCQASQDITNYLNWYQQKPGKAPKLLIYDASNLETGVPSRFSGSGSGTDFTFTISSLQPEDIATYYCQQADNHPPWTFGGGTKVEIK .
Given back: 0.3
